Tested on: VDR:RXRa (NR concentration 270 nM, RXRa partner concentration 90 nM)
Experiment: PBM binding z-score (relative to random genomic background probes); higher = stronger binding; sequences stand for … in GC…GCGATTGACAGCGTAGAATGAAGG
quantityKind: PBM binding z-score
# answer = number (no unit)

Recorded results for 3 sequences are shown here.
seqString: ATATGTAGATTAGGGTCATTCAGAAAGTAGGGAA
PBM binding z-score: 4.06

seqString: TATTGTAGATCAAAGGTTAAGAAAGCCGAAGCCT
PBM binding z-score: 1.54

seqString: CGTCCAAGGTCAATGCGAGGTCAGTGAAAGCATT
PBM binding z-score: 6.22

*Q* Item under review: CCTCCAAGGTCATAGGAGGTCAGTGAAGACAGAT . Reported PBM binding z-score?
*A* 6.6

*Q* Item under review: CGAACTAGGTCAAAGGACAGAGAAAGGCGACGTA . Reported PBM binding z-score?
*A* 1.54

*Q* Item under review: CGTCCAAGGTCATAGGAGGTCACTGAAGACAGAT . Reported PBM binding z-score?
*A* 7.05
